The measured values listed here are drawn from patent US20250034108A1.

Could you please report measured pIC50 for the items listed next?
# Experimental target: human Nav1.5 (Homo sapiens (Human), UniProt Q14524)
# Sequence (Q14524 whole entry): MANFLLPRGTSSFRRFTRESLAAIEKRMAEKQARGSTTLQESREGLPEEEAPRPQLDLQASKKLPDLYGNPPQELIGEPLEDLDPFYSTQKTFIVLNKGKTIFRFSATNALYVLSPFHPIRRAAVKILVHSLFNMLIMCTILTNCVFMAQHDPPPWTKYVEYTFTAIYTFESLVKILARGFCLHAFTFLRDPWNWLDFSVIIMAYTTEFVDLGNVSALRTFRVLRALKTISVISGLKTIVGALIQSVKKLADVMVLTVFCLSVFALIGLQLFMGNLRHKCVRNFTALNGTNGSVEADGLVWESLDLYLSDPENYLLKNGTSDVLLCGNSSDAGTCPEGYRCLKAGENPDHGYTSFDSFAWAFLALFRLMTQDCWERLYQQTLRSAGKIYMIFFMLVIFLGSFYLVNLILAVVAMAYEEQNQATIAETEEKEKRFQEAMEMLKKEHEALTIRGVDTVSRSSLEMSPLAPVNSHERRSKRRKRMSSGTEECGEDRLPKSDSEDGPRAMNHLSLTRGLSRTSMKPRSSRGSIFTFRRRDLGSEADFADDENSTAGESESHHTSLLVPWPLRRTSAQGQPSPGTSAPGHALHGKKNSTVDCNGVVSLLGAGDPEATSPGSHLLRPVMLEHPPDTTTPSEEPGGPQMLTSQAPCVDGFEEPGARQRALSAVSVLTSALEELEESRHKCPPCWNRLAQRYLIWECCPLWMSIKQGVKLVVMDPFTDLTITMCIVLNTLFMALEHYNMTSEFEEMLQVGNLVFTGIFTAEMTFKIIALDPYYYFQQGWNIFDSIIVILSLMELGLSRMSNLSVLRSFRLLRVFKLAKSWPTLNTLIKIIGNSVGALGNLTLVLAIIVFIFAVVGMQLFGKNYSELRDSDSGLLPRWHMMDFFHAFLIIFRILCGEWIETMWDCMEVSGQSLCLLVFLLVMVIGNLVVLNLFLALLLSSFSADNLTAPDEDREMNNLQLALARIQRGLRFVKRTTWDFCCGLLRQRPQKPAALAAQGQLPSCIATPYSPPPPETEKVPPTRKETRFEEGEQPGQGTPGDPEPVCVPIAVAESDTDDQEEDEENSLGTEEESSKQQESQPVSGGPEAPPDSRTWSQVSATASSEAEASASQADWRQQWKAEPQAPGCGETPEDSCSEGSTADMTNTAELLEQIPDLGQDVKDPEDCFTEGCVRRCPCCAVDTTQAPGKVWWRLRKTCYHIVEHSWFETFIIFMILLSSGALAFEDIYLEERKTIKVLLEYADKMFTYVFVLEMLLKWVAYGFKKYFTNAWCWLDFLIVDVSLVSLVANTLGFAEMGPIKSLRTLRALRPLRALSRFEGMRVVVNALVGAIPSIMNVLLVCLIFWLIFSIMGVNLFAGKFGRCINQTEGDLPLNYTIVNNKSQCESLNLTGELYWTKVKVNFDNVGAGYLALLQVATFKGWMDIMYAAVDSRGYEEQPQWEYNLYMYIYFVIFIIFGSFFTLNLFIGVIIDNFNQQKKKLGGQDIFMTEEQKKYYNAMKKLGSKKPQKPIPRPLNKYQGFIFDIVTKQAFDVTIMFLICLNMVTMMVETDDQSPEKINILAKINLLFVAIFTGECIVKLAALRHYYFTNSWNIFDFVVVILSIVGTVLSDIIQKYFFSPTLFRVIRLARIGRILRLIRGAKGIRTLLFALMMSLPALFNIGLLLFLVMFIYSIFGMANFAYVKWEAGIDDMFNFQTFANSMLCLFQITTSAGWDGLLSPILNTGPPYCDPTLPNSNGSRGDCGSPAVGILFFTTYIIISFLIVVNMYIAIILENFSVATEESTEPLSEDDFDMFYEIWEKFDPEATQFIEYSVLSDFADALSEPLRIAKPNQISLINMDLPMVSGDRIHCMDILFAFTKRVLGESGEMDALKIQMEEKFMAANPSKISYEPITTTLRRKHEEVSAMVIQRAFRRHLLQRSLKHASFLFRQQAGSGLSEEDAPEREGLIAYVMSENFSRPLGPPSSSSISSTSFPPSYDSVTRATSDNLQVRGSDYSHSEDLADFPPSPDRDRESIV
# Protocol description: Qpatch automated patch-clamp, peak Nav1.5 current inhibition, 1 Hz sinus rate, ventricular condition (holding potential -100 mV)
# Type: cell-based
# Recorded conditions: CHO-K1 cells stably expressing human Nav1.5, without ATX-II
pIC50: −log10 of the molar value.

Compound	Experimental target	Observable	Result
CC(O)(CS(N)(=O)=O)c1cccc(-c2nnn(Cc3cc(OC4CC4)ccc3F)n2)n1 (single isomer, unassigned) [Example 46]	human Nav1.5 (Homo sapiens (Human), UniProt Q14524)	pIC50	< 4.52
CC(O)(CS(N)(=O)=O)c1cc(F)cc(-c2nnn(Cc3cc(OC(F)(F)F)ccc3F)n2)c1 (single isomer, unassigned) [Example 24]	human Nav1.5 (Homo sapiens (Human), UniProt Q14524)	pIC50	< 4.52
CC(c1cccc(-c2nnn(Cc3cc(OC(F)(F)F)ccc3F)n2)n1)C(CO)S(N)(=O)=O (single isomer, unassigned) [Example 32]	human Nav1.5 (Homo sapiens (Human), UniProt Q14524)	pIC50	4.55

Dear colleague, could you please provide pIC50 for the compounds listed below?
1. CC(O)(CS(N)(=O)=O)c1cccc(-c2nnn(Cc3c(F)ccc4c3OC(F)(F)O4)n2)n1 (single isomer, unassigned) [Example 3]
2. CC(O)(CS(N)(=O)=O)c1cccc(-c2nnn(Cc3cc(OC(F)(F)F)ccc3F)n2)c1F (single isomer, unassigned) [Example 11]
3. CC(O)(CS(N)(=O)=O)c1ccc(F)c(-c2nnn(Cc3cc(OC(F)(F)F)ccc3F)n2)c1 (single isomer, unassigned) [Example 10]
4. CC(O)(CS(N)(=O)=O)c1nc(-c2nnn(Cc3cc(OC(F)(F)F)ccc3F)n2)ccc1F (single isomer, unassigned) [Example 45]
5. CC(O)(CS(N)(=O)=O)c1cccc(-c2nnn(Cc3cc(OC4CC4)ccc3F)n2)n1 (single isomer, unassigned) [Example 47]

Out:
< 4.52
5.05
< 4.52
< 4.52
4.57

Batch request: pIC50 for each of the following compounds.
1. CC(O)(CS(N)(=O)=O)c1cccc(-c2nnn(Cc3cc(OC(F)(F)F)ccc3F)n2)c1F (single isomer, unassigned) [Example 12]
2. CC(O)(CS(N)(=O)=O)c1cc(-c2nnn(Cc3cc(OC(F)(F)F)ccc3F)n2)ccc1F (single isomer, unassigned) [Example 5]
3. CC(C(O)c1cccc(-c2nnn(Cc3cc(OC(F)(F)F)ccc3F)n2)n1)S(N)(=O)=O (single isomer, unassigned) [Example 51]

Out:
1: 5.00; 2: < 4.52; 3: < 4.52

----------
# Experimental target: human Nav1.5 (Homo sapiens (Human), UniProt Q14524)
# Protocol description: Qpatch automated patch-clamp, peak Nav1.5 current inhibition, 1 Hz with 50 nM ATX-II (holding potential -100 mV)
# Type: cell-based
# Recorded conditions: CHO-K1 cells stably expressing human Nav1.5, read-out: Nav1.5 IC50 (1 Hz, ATXII)
# Source text: Electrophysiology was used to measure the ionic currents in isolated living cells using automated patch-clamp recording, performed using an automated patch-clamp machine called Qpatch (Sophion Bioscience). Two different assay conditions were used to identify compounds with atrial-selective potential. The 5-Hz AF-like assay has more depolarized holding potential at −85 mV to mimic atrial resting membrane potential (RMP) and was used to identify compounds of strong rate-dependence. […]
Observable: pIC50
Give bare numbers, as −log10 of the molar value.

Molecule	Experimental target	pIC50
CC(O)(CS(N)(=O)=O)c1cccc(-c2cn(Cc3cc(OC(F)(F)F)ccc3F)nn2)n1 (single isomer, unassigned) [Rac-59 + 60]	human Nav1.5 (Homo sapiens (Human), UniProt Q14524)	4.82
CC(C(C)(O)c1cccc(-c2nnn(Cc3cc(OC(F)(F)F)ccc3F)n2)n1)S(N)(=O)=O (single isomer, unassigned) [Example 15]	human Nav1.5 (Homo sapiens (Human), UniProt Q14524)	4.62
CC(O)(CS(N)(=O)=O)c1ccc(Cl)c(-c2nnn(Cc3cc(OC(F)(F)F)ccc3F)n2)c1 (single isomer, unassigned) [Example 8]	human Nav1.5 (Homo sapiens (Human), UniProt Q14524)	4.55
CC(O)(CS(N)(=O)=O)c1cccc(-c2ncn(Cc3cc(OC(F)(F)F)ccc3F)n2)n1 (racemic)	human Nav1.5 (Homo sapiens (Human), UniProt Q14524)	4.77
CC(O)(CS(N)(=O)=O)c1cccc(-c2nnn(Cc3cc(OC4CC4)ccc3F)n2)n1 (single isomer, unassigned) [Example 47]	human Nav1.5 (Homo sapiens (Human), UniProt Q14524)	4.89
CC(O)(CS(N)(=O)=O)c1ccc(F)c(-c2nnn(Cc3cc(OC(F)(F)F)ccc3F)n2)c1 (single isomer, unassigned) [Example 10]	human Nav1.5 (Homo sapiens (Human), UniProt Q14524)	4.96
CC(O)(CS(N)(=O)=O)c1ccc(Cl)c(-c2nnn(Cc3cc(OC(F)(F)F)ccc3F)n2)n1 (single isomer, unassigned) [Example 28]	human Nav1.5 (Homo sapiens (Human), UniProt Q14524)	5.49
CC(O)(CS(N)(=O)=O)c1cccc(-c2nnn(Cc3cc(OCC(F)(F)F)ccc3F)n2)n1 (single isomer, unassigned)	human Nav1.5 (Homo sapiens (Human), UniProt Q14524)	5.52
CC(O)(CS(N)(=O)=O)c1cccc(-c2nnn(Cc3cc(C(F)(F)F)ccc3F)n2)n1 (single isomer, unassigned) [Example 20]	human Nav1.5 (Homo sapiens (Human), UniProt Q14524)	4.64
CC(O)(CS(N)(=O)=O)c1cc(F)cc(-c2nnn(Cc3cc(OC(F)(F)F)ccc3F)n2)c1 (single isomer, unassigned) [Example 24]	human Nav1.5 (Homo sapiens (Human), UniProt Q14524)	5.11

Provide pIC50 for all items below, preserving their order.
1. CC(O)(CS(N)(=O)=O)c1ccc(Cl)c(-c2nnn(Cc3cc(OC(F)(F)F)ccc3F)n2)n1 (racemic) [Rac-27 + 28]
2. C[C@](O)(CS(N)(=O)=O)c1cccc(-c2nnn(Cc3cc(OC(F)(F)F)ccc3F)n2)n1
3. CC(O)(CS(N)(=O)=O)c1ccc(Cl)c(-c2nnn(Cc3cc(OC(F)(F)F)ccc3F)n2)c1 (single isomer, unassigned) [Example 7]
4. CC(O)(CS(N)(=O)=O)c1cccc(-c2nc(Cc3cc(OC(F)(F)F)ccc3F)no2)n1 (single isomer, unassigned) [Example 57]
5. CC(O)(CS(N)(=O)=O)c1cccc(-c2nnn(Cc3cc(C(F)(F)F)ccc3F)n2)n1 (single isomer, unassigned) [Example 19]

Out:
[4.80, 4.72, 4.82, 4.57, 4.85]

----------
Hi there, I'd appreciate the recorded pIC50 for every entry that follows.
# Experimental target: human Nav1.5 (Homo sapiens (Human))
# Protocol description: Qpatch automated patch-clamp, peak Nav1.5 current inhibition, 1 Hz sinus rate, ventricular condition (holding potential -100 mV)
# Assay type: cell-based
# Recorded conditions: CHO-K1 cells stably expressing human Nav1.5, without ATX-II
Numbers only, as −log10 of the molar value.

Some entries whose results are on file:
Compound	pIC50
CC(c1cccc(-c2nnn(Cc3cc(OC(F)(F)F)ccc3F)n2)n1)C(CO)S(N)(=O)=O (single isomer, unassigned) [Example 31]	5.11
CC(C(O)c1cccc(-c2nnn(Cc3cc(OC(F)(F)F)ccc3F)n2)n1)S(N)(=O)=O (single isomer, unassigned) [Example 52]	4.31

Note: attention shifts to another entry.
In: Which measured pIC50 value corresponds to C[C@](O)(CS(N)(=O)=O)c1cccc(-c2nnn(Cc3cc(OC(F)(F)F)ccc3F)n2)n1 [Example 1] ?
Out: 4.66

----------
# Experimental target: human Nav1.5 (Homo sapiens (Human), UniProt Q14524)
# Protocol description: Qpatch automated patch-clamp, peak Nav1.5 current inhibition, 1 Hz with 50 nM ATX-II (holding potential -100 mV)
# Format: cell-based
# Recorded conditions: CHO-K1 cells stably expressing human Nav1.5, read-out: Nav1.5 IC50 (1 Hz, ATXII)
Observable: IC50 (µM)
Give bare numbers, in µM.

Compound	IC50 [µM]
CC(O)(CS(N)(=O)=O)c1cccc(-c2ccn(Cc3cc(OC(F)(F)F)ccc3F)n2)n1 (single isomer, unassigned) [Example 37]	14
CC(C(C)(O)c1cccc(-c2nnn(Cc3cc(OC(F)(F)F)ccc3F)n2)n1)S(N)(=O)=O (single isomer, unassigned) [Example 16]	4.8

In: Data request, read-out IC50, for CC(C(O)c1cccc(-c2nnn(Cc3cc(OC(F)(F)F)ccc3F)n2)n1)S(N)(=O)=O (single isomer, unassigned)
Out: 22

----------
# Experimental target: UniProt Q14524
# Protocol description: Qpatch automated patch-clamp, peak Nav1.5 current inhibition, 5-Hz AF-like assay (holding potential -85 mV)
# Assay type: cell-based
# Recorded conditions: CHO-K1 cells stably expressing human Nav1.5, holding potential -85 mV, Table 5, read-out: Nav1.5 IC50 (5 Hz, AF Rate)
Observable: pIC50
Give bare numbers, as −log10 of the molar value.

Molecule	Experimental target	pIC50
CCC(O)(CS(N)(=O)=O)c1cccc(-c2ccn(Cc3cc(OC(F)(F)F)ccc3F)n2)n1 (racemic) [Example 35]	UniProt Q14524	5.40
CC(O)(CS(N)(=O)=O)c1nc(-c2nnn(Cc3cc(OC(F)(F)F)ccc3F)n2)ccc1F (single isomer, unassigned) [Example 45]	UniProt Q14524	5.32
CC(C(O)c1cccc(-c2nnn(Cc3cc(OC(F)(F)F)ccc3F)n2)n1)S(N)(=O)=O (single isomer, unassigned) [Example 52]	UniProt Q14524	5.54

In: // query pIC50 value for entry CC(O)(CS(N)(=O)=O)c1cccc(-c2ccn(Cc3cc(OC(F)(F)F)ccc3F)n2)n1 (single isomer, unassigned) [Example 37]
Out: 5.89
